- Test System: Epidermal growth factor receptor (Homo sapiens, UniProt P00533)
- Sequence (P00533 whole entry): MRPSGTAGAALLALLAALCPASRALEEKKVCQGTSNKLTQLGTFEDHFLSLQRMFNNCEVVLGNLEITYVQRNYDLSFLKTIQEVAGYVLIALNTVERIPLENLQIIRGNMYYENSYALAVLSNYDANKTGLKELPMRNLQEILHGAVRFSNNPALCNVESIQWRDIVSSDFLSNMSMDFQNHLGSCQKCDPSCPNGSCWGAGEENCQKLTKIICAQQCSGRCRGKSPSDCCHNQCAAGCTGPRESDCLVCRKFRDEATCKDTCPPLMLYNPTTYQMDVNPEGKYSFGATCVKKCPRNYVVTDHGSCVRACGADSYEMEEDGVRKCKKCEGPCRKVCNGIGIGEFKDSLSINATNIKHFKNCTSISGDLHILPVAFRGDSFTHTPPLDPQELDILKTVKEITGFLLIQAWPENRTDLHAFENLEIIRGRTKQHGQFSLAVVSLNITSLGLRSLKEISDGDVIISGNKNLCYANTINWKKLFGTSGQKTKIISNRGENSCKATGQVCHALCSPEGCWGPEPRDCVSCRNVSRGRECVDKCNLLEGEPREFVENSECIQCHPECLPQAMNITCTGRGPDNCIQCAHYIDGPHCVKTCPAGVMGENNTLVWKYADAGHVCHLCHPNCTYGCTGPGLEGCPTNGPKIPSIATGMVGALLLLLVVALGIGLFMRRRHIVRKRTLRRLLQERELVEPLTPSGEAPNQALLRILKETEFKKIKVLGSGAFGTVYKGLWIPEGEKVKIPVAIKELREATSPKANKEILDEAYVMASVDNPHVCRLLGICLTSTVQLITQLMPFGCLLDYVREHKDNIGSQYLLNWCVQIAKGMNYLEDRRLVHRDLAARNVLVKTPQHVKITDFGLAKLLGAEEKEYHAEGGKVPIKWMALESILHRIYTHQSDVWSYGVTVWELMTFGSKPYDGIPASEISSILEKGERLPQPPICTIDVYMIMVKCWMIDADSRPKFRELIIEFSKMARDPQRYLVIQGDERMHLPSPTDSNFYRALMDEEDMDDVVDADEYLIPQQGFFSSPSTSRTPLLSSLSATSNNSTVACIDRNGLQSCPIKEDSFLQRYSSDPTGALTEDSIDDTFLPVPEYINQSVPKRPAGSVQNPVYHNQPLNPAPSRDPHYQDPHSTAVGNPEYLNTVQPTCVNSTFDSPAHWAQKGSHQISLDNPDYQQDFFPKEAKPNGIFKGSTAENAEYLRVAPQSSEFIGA
Attribute Measured: IC50 (nM)
Numbers only; they are read as nM.

Recorded results for 4 molecules are shown here.
COC(=O)c1ccc(OC)c(-c2cc3c(N[C@H](C)c4ccccc4)ncnc3s2)c1; 7
COc1cc(C(=O)NCCN(C)C)cc(OC)c1-c1cc2c(N[C@H](C)c3ccccc3)ncnc2s1; 0.4
COC(=O)c1cc(OC)c(-c2cc3c(N[C@H](C)c4ccccc4)ncnc3s2)c(OC)c1; 4
C[C@@H](Nc1ncnc2sc(-c3cccc(S(C)(=O)=O)c3)cc12)c1ccccc1; 26

Here's the next entry for you.
**Query** Find IC50 (Epidermal growth factor receptor (Homo sapiens, UniProt P00533)) for the entry COC(=O)c1cccc(-c2cc3c(N[C@H](C)c4ccccc4)ncnc3s2)c1OC
**Result** 9
